// reported Growth Rate for each item listed
# Tested on: Fibroblast
# Experiment description: Incucyte cell viability with human fibroblast; further: filed as whole numbers so only -1 and 0 and 1 occur
# Format: toxicity, cell-based
# Run conditions: 0 h, 10 µM, compound concentration 10 uM, replicate number 1, timepoint 0 hours
Measurement name: Growth Rate

>>> print(df.to_string())
                                   compound  test_target  assay_result
0  C[S+]([O-])c1ccc(-c2nc(-c3ccncc3)c(-c3ccc(F)cc3)[nH]2)cc1 (stereo not given)   Fibroblast             0
1               O=c1nc(-c2ccccn2)sc2ccccc12   Fibroblast             1
2       COc1ccc(Cn2ccc3ccc(C(=O)NO)cc32)cc1   Fibroblast             0
3  O=C(NCc1ccccc1)c1ccc(S(=O)(=O)NCc2ccccc2)cc1   Fibroblast             0
4  CC(C)C(=O)Nc1n[nH]c2cc(-c3cccc(NS(=O)(=O)C4CC4)c3)ccc12   Fibroblast             1

====

# Tested on: HEK-293T
# Experiment description: Multiplex assay against HEK293T
# Type: toxicity, cell-based
# Run conditions: human, 12 h, 10 µM, compound concentration 10 uM, replicate 1
Labelling field: enter Criterion met if recorded Population Pyknosed Nuclei (%) is less than 30%. Enter Criterion not met if it equals or exceeds that cut-off.

>>> print(df.to_string())
                                   molecule  test_target        label_value
0  Cc1nc(Nc2n[nH]c3c2CN(C(=O)N[C@H](CN(C)C)c2ccccc2)C3(C)C)c2sccc2n1     HEK-293T  Criterion not met
1  CN1CCCC(n2nc(Cc3ccc(Cl)cc3)c3ccccc3c2=O)CC1.Cl (stereo not drawn) [AZELASTINE HYDROCHLORIDE]     HEK-293T  Criterion not met
2  C=CC(=O)Nc1cc2c(Nc3ccc(F)c(Cl)c3)ncnc2cc1OCCCN1CCOCC1.Cl.Cl [CANERTINIB DIHYDROCHLORIDE]     HEK-293T      Criterion met
3  CC(C)NCC(O)COc1ccc(CCOCC2CC2)cc1.Cl (stereo not drawn) [BETAXOLOL HYDROCHLORIDE]     HEK-293T  Criterion not met
4  CN(C)C(=O)N[C@H]1CC[C@H](CCN2CCN(c3cccc(Cl)c3Cl)CC2)CC1.Cl [CARIPRAZINE HYDROCHLORIDE]     HEK-293T  Criterion not met
5  CCN(CC)CCCCNc1ncc2cc(-c3cc(OC)cc(OC)c3)c(NC(=O)NC(C)(C)C)nc2n1     HEK-293T      Criterion met
6  COc1cccc([C@@H](C)NCCCc2ccccc2Cl)c1.Cl [TECALCET HYDROCHLORIDE]     HEK-293T  Criterion not met
7  Cc1csc2c(N[C@@H](C)CN3CCN(S(=O)(=O)c4ccc(Cl)c(Cl)c4)CC3)ncnc12     HEK-293T  Criterion not met

====

// reported Population Mitochondria Different-Phenotype (%) for each item listed
# System: HEK-293T
# Experiment description: Multiplex assay against HEK293T
# Type: toxicity, cell-based
# Run conditions: human, 48 h, 1 µM, compound concentration 1 uM, replicate 2
Measurement name: Population Mitochondria Different-Phenotype (%)

>>> print(df.to_string())
                                    molecule  assay_result
 0  Cc1[nH]c(/C=C2\C(=O)Nc3ccc(S(=O)(=O)N(C)c4cccc(Cl)c4)cc32)c(C)c1C(=O)N1CCN(C)CC1            20
 1  CNc1nc(NCc2ccc(NS(C)(=O)=O)cc2Cl)cc(-c2ccccn2)n1             7
 2  Cc1csc2c(N[C@@H](C)CN3CCN(S(=O)(=O)c4ccc(Cl)c(Cl)c4)CC3)ncnc12            44
 3  O=C1NCN(c2ccccc2)C12CCN(CCCOc1ccc(F)cc1)CC2 [SPIRAMIDE]             7
 4  CN(C)CC#Cc1ccc(OCCCc2sc(N3CCc4cccc(C(=O)Nc5nc6ccccc6s5)c4C3)nc2C(=O)O)c(F)c1 [A-1155463]             4
 5  COc1ncc(-c2ccc3nccc(-c4ccnnc4)c3c2)cc1NS(=O)(=O)c1ccc(F)cc1F [OMIPALISIB]            40
 6  Cl.N#Cc1ccc2[nH]cc(CCCCN3CCN(c4ccc5oc(C(N)=O)cc5c4)CC3)c2c1 [VILAZODONE HYDROCHLORIDE]            32
 7  Cn1cc(-c2[nH]c3cc(NC(=O)[C@H](N)C4CCCCC4)cc4c3c2C=NNC4=O)cn1            20
 8  Cc1c(-c2ccc(O)cc2)n(Cc2ccc(OCCN3CCCCCC3)cc2)c2ccc(O)cc12 [BAZEDOXIFENE]            19
 9  COc1cc(-n2cnc3cc(-c4ccc(Cl)cc4)sc3c2=O)ccc1OCCN1CCCC1            21
10  OC1(c2ccc(Cl)cc2)CCN(Cc2c[nH]c3ccccc23)CC1            15
11  Cc1cc(C)cc(-c2cnc3cc(Cl)c(-c4cccc(O)c4)cc3c2OCCCN)c1            55
12  CC(C)NCC(O)COc1ccc(CCOCC2CC2)cc1.Cl (configuration not stated) [BETAXOLOL HYDROCHLORIDE]             6
13  CC[C@H](C)C(=O)O[C@H]1C[C@@H](C)C=C2C=C[C@H](C)[C@H](CC[C@@H]3C[C@@H](O)CC(=O)O3)[C@H]21 [LOVASTATIN]             4
14  C=CC(=O)Nc1cccc(C(=O)Nc2ccc(Nc3cc(-c4[nH]c(SC)nc4C)ccn3)cc2)c1             8
15  CN1CCC[C@@H]1CCO[C@](C)(c1ccccc1)c1ccc(Cl)cc1.O=C(O)/C=C/C(=O)O [CLEMASTINE FUMARATE]            29
16  CN1CCCC(n2nc(Cc3ccc(Cl)cc3)c3ccccc3c2=O)CC1.Cl (configuration not stated) [AZELASTINE HYDROCHLORIDE]            48

====

# Test system: Fibroblast
# Experiment description: Multiplex assay against human fibroblast
# Format: toxicity, cell-based
# Run conditions: 24 h, 10 µM, compound concentration 10 uM, replicate 2
Measurement name: Population Apoptotic (%)

>>> df
                                   molecule  assay_result
0  CNc1nc(NCc2ccc(NS(C)(=O)=O)cc2Cl)cc(-c2ccccn2)n1            50
1  Cc1cc(C)cc(-c2cnc3cc(Cl)c(-c4cccc(O)c4)cc3c2OCCCN)c1            93
2  CN(C)C(=O)N[C@H]1CC[C@H](CCN2CCN(c3cccc(Cl)c3Cl)CC2)CC1.Cl [CARIPRAZINE HYDROCHLORIDE]            94
3  CNCc1ccc(-c2cc(-c3nc(-c4ccc(S(=O)(=O)C(C)C)cc4)cnc3N)on2)cc1 [BERZOSERTIB]            54
4  CC(C)(O)CNc1ncc(-c2ccnc(Nc3ccnc(Cl)c3)n2)c(CC2CC2)n1            47

====

# System: HEK-293T
# Experiment description: Multiplex assay against HEK293T
# Type: toxicity, cell-based
# Run conditions: human, 48 h, 1 µM, compound concentration 1 uM, replicate 2
// reported Population Membrane Permeable-Phenotype (%) for each item listed
Measurement name: Population Membrane Permeable-Phenotype (%)

>>> print(df.to_string())
                                   compound  measure_unit  assay_result
0  CN1CCCC(n2nc(Cc3ccc(Cl)cc3)c3ccccc3c2=O)CC1.Cl (centres undefined) [AZELASTINE HYDROCHLORIDE]             %             6
1  Cc1cc(C)cc(-c2cnc3cc(Cl)c(-c4cccc(O)c4)cc3c2OCCCN)c1             %             3
2  C=CC(=O)Nc1ccc2ncnc(Nc3ccc(OCc4cccc(F)c4)c(Cl)c3)c2c1.Cc1ccc(S(=O)(=O)O)cc1             %            11
3  OC1(c2ccc(Cl)cc2)CCN(Cc2c[nH]c3ccccc23)CC1             %             6
4  Cc1csc2c(N[C@@H](C)CN3CCN(S(=O)(=O)c4ccc(Cl)c(Cl)c4)CC3)ncnc12             %            17
5  C[C@@H](NCCCc1cccc(C(F)(F)F)c1)c1cccc2ccccc12.Cl [CINACALCET HYDROCHLORIDE]             %             9
6  CN1CCN(CCOc2cc(OC3CCOCC3)c3c(Nc4c(Cl)ccc5c4OCO5)ncnc3c2)CC1             %             1
7  c1cn2cc(-c3ccc4cn[nH]c4c3)nc(Nc3ccc(N4CCOCC4)cc3)c2n1             %             5
8  CNc1nc(NCc2ccc(NS(C)(=O)=O)cc2Cl)cc(-c2ccccn2)n1             %             5
